Target: human Nav1.7 (Homo sapiens (Human))
Sequence (Q15858 whole entry): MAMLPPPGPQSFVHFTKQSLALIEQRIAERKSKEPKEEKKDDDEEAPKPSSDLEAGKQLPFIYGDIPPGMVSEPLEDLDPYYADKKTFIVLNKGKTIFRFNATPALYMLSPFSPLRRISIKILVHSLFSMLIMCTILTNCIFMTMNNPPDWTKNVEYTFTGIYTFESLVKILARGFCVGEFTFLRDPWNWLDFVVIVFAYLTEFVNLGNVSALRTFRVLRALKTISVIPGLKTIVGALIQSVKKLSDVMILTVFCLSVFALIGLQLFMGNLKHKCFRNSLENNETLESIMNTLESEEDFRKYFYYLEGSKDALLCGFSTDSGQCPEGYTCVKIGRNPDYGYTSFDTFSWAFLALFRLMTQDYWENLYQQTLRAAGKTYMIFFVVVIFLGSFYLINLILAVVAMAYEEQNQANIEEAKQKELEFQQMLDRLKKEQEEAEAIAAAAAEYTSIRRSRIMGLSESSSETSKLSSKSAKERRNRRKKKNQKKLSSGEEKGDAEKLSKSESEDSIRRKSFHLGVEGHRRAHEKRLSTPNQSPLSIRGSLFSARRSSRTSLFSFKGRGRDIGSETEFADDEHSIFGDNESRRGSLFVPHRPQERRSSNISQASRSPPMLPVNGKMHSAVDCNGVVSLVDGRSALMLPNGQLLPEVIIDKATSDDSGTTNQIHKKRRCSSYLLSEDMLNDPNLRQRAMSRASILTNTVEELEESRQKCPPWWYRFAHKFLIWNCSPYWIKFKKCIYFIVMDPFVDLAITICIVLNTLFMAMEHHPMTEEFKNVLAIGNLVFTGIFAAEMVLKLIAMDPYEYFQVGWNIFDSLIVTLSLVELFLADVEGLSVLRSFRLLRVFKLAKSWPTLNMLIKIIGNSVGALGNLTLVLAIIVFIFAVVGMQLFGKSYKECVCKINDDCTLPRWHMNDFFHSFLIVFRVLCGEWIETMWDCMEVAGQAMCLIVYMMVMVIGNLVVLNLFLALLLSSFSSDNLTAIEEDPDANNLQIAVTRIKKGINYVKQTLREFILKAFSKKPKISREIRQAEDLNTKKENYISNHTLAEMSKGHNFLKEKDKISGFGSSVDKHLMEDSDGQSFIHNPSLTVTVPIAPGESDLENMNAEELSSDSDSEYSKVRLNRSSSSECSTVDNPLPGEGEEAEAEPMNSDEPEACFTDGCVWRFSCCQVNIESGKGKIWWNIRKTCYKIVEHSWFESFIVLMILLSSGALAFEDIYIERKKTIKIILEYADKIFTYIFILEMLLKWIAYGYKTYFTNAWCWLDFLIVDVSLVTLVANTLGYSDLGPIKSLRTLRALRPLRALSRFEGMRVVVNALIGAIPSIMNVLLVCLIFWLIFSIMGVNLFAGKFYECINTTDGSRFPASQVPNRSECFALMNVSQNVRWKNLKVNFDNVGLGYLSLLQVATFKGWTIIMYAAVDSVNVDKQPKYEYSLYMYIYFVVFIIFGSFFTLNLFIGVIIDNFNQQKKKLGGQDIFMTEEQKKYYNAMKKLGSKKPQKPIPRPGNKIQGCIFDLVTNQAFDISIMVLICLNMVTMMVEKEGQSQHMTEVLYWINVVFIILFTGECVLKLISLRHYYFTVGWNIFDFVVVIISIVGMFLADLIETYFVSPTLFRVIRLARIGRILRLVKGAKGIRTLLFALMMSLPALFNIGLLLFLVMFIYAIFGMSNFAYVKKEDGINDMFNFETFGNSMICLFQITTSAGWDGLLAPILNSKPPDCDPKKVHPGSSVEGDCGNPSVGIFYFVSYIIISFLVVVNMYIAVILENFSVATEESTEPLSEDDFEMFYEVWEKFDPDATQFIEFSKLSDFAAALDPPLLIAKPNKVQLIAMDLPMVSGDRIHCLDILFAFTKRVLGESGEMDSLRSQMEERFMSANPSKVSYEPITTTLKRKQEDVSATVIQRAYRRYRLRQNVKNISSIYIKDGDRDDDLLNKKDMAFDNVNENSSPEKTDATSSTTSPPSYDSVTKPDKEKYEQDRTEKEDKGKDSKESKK
Sequence (Q07699 19-218 partner): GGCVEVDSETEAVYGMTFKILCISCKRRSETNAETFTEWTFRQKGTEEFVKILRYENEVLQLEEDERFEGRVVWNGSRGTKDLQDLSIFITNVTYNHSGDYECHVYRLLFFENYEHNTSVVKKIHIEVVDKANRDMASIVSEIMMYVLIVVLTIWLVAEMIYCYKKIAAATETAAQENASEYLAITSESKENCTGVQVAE
Assay: Human Nav1.7 inhibitory activity evaluation (automated patch clamp QPatch16X, HEK293A cells stably expressing human Nav1.7 and human Navβ1)
Format: cell-based
Details: human Nav1.7, automated patch clamp
pIC50: −log10 of the molar value.
Reported pIC50 values are given for each entry in this list.

COMPOUND	pIC50
N#Cc1ccc2c(c1)C[C@@H](NC(=O)c1cc3n(n1)CC(CCCOCC(F)F)O3)CO2 (single isomer, unassigned) [604 (isomer A)]	> 6.00
O=C(N[C@H]1COc2ccc(CC(F)F)cc2C1)c1cc2n(n1)CCC(C(F)(F)F)CO2 (some centres unmarked)	> 6.00
C=Cc1ccc2c(c1)C[C@@H](NC(=O)c1cc3n(n1)CCC(C(F)(F)F)O3)CO2 (some centres unmarked)	> 6.00
Cc1cnc(-c2ccc3c(c2)C[C@@H](NC(=O)c2cc4n(n2)CC(COCC(F)(F)F)O4)CO3)cn1 (single isomer, unassigned) [194 (isomer A)]	> 5.00
O=C(N[C@H]1COc2ccc(C3CC3)cc2C1)c1nc2n(c1-c1ccccn1)CCOC2	> 6.00
Cc1ccc2c(c1)C[C@@H](NC(=O)c1cc3n(n1)CC(CCNCC(F)(F)F)O3)CO2 (single isomer, unassigned) [228 (isomer A)]	> 6.00
O=C(c1cn2c(n1)CNC(c1cccc(OC(F)(F)F)c1)C2)N1CCOC(c2cccc(C(F)(F)F)c2)C1 (centres unmarked)	> 5.00
O=C(N[C@H]1COc2ccc(CCOC(F)F)cc2C1)c1cc2n(n1)CCC(C(F)F)O2 (single isomer, unassigned) [165 (isomer A)]	> 6.00
O=C(N[C@H]1COc2ccc(C(F)(F)F)cc2C1O)c1cc2n(n1)CCC(COCC1CC1)O2 (some centres unmarked) [Example 558]	> 6.00
N#Cc1ccc2c(c1)C(F)[C@@H](NC(=O)c1cc3n(n1)CC(CCOCC1CC1)O3)CO2 (some centres unmarked)	> 6.00
O=C(N[C@H]1COc2ccc(C(F)(F)F)cc2C1O)c1cc2n(n1)CCC(COCC1CC1)O2 (some centres unmarked) [Example 559]	> 5.00
N#Cc1ccc2c(c1)C(F)[C@@H](NC(=O)c1cc3n(n1)CCC(COCC1CC1)O3)CO2 (single isomer, unassigned) [617 (isomer B)]	> 5.00
O=C(N[C@H]1COc2ccc(Cl)cc2C1)c1nn2c(c1-c1ccccc1)OCCCC2	> 6.00
O=C(N[C@H]1COc2ccc(C(F)(F)F)cc2C1F)c1cc2n(n1)CCN(CCOC1CCC1)C2 (some centres unmarked)	> 6.00
